Target: Recombinant human CD16aV (V polymorphism at position 158 of CD16) (human, UniProt P08637 17-208)
Sequence (P08637 17-208 F176V): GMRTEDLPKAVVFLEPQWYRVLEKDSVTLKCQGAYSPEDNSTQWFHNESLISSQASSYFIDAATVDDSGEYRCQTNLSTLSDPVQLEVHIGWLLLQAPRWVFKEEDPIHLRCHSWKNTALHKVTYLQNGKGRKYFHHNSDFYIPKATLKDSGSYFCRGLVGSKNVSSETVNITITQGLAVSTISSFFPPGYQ
Test: SPR; produced in HEK
OBSERVABLE: Kd (nM)
Reply with just the number (in nM).

Data request: # get_value(readout='Kd', item= T5A-74M (Y296W/N315D/A330V/N361D/A378V/N434Y) Fc fragment (other) DKTHTCPPCPAPELLGGPSVFLFPPKPKDTLMISRTPEVTCVVVDVSHEDPEVKFNWYVDGVEVHNAKTKPREEQWNSTYRVVSVLTVLHQDWLDGKEYKCKVSNKALPVPIEKTISKAKGQPREPQVYTLPPSRDELTKDQVSLTCLVKGFYPSDIVVEWESNGQPENNYKTTPPVLDSDGSFFLYSKLTVDKSRWQQGNVFSCSVMHEALHYHYTQKSLSLSPGK )
Data returned: 308

Data request: What does the data say about its Kd? Entry: A3A-184A (K334N/P352S/A378V/V397M) Fc fragment (other) DKTHTCPPCPAPELLGGPSVFLFPPKPKDTLMISRTPEVTCVVVDVSHEDPEVKFNWYVDGVEVHNAKTKPREEQYNSTYRVVSVLTVLHQDWLNGKEYKCKVSNKALPAPIENTISKAKGQPREPQVYTLSPSRDELTKNQVSLTCLVKGFYPSDIVVEWESNGQPENNYKTTPPMLDSDGSFFLYSKLTVDKSRWQQGNVFSCSVMHEALHNHYTQKSLSLSPGK
Data returned: 228

Data request: So what does the record say about Kd for T5A-74I (T260A/N315D/A330V/N361D/A378V/N434Y) Fc fragment (other) DKTHTCPPCPAPELLGGPSVFLFPPKPKDTLMISRTPEVACVVVDVSHEDPEVKFNWYVDGVEVHNAKTKPREEQYNSTYRVVSVLTVLHQDWLDGKEYKCKVSNKALPVPIEKTISKAKGQPREPQVYTLPPSRDELTKDQVSLTCLVKGFYPSDIVVEWESNGQPENNYKTTPPVLDSDGSFFLYSKLTVDKSRWQQGNVFSCSVMHEALHYHYTQKSLSLSPGK ?
Data returned: 3510

Data request: Given T5A-74L (E294A/N315D/A330V/N361D/A378V/N434Y) Fc fragment (other) DKTHTCPPCPAPELLGGPSVFLFPPKPKDTLMISRTPEVTCVVVDVSHEDPEVKFNWYVDGVEVHNAKTKPREAQYNSTYRVVSVLTVLHQDWLDGKEYKCKVSNKALPVPIEKTISKAKGQPREPQVYTLPPSRDELTKDQVSLTCLVKGFYPSDIVVEWESNGQPENNYKTTPPVLDSDGSFFLYSKLTVDKSRWQQGNVFSCSVMHEALHYHYTQKSLSLSPGK , state its recorded Kd.
Data returned: 4400

Data request: Could you share which Kd value was measured for T5A-74J (E258I/N315D/A330V/N361D/A378V/N434Y) Fc fragment (other) DKTHTCPPCPAPELLGGPSVFLFPPKPKDTLMISRTPIVTCVVVDVSHEDPEVKFNWYVDGVEVHNAKTKPREEQYNSTYRVVSVLTVLHQDWLDGKEYKCKVSNKALPVPIEKTISKAKGQPREPQVYTLPPSRDELTKDQVSLTCLVKGFYPSDIVVEWESNGQPENNYKTTPPVLDSDGSFFLYSKLTVDKSRWQQGNVFSCSVMHEALHYHYTQKSLSLSPGK ?
Data returned: 2820
